Tested on: K562 CRISPRi cells
TEST_DESCRIPTION: Constant region variant library pooled growth screen, K562
Format: cell-based, human
SETTINGS: sgRNA constant region variants; activity relative to the unmodified constant region cr995
What Mean relative activity was measured for each of the following?
One number for each entry.

Solved entries:
MOLECULE	Mean relative activity
cr390 (nucleic acid, listed as DNA, chemistry not fully specified) guide: GTTTAAGAGCTAAGCTGGAAACAGCATAGCAAATTTAAATAAGGCTAGTCCGTTATCAACTTGAAAAAGTAGCACCGAGTCGGTGCT	0.1354
cr308 (nucleic acid, listed as DNA, chemistry not fully specified) guide: GTTTAAGAGCTAAGCTGGAAACAGCATAGCAAGTTTAAATAAAGCTAGTCTGTTATCATCTTGAAAAAGAGGCTCCGAGTCGGAGCT	0.2249
cr025 (nucleic acid, listed as DNA, chemistry not fully specified) guide: CTTTAAAAGCTAAGCTGGAAACAGCATAGCAAGTTTAAATAAGGCTAGTCCGTTATCAACTTGAAAAAGTGGCACCGAGTCGGTGCT	0.2396
cr881 (nucleic acid, listed as DNA, chemistry not fully specified) guide: GTTTAAGAGCTAAGCTGGAAACAGCATAGCAAGTTTAAATAAGGCTAGTCCTTTAACAACTTGAAAAAGTGGCACCGAGTCGGTGCT	0.1367
cr125 (nucleic acid, listed as DNA, chemistry not fully specified) guide: GTTTAAGAGCTAAGCTGGAAACAGCATAGCAATTTTAAATAAGGCTAGTCCGTTATCAACTTGATAAAGTGGCACCGAGTCGGTGCT	0.2852
cr228 (nucleic acid, listed as DNA, chemistry not fully specified) guide: GTTTAAGAGCTAAGCTGGAAACAGCATAGCAAGTTTAAATAAGGGTAGTCCGTTATCAACTTGAAAAAGTGGCACCGAGTCGGTGCT	0.1424
cr090 (nucleic acid, listed as DNA, chemistry not fully specified) guide: GTTTTATAGCTAAGCTGGAAACAGCATAGCAAGTTTAAATAAGGCTAGTCCGTTATCAACTTGAAAAAGTGGCACCGAGTCGGTGCT	0.1865
cr004 (nucleic acid, listed as DNA, chemistry not fully specified) guide: GATTAAGAGCTAAGCTGGAAACAGCATAGCAAGTTTAAATAAGGCTAGTCCGTTATCAACTTGAAAAAGTGGCACCGAGTCGGTGCT	0.3103
cr812 (nucleic acid, listed as DNA, chemistry not fully specified) guide: GTTTAAGAGCTAAGCTGGAAACAGCATAGCAAGTTTAAATAAGGCTACTCCGTTATCAACTTGAAAAAGTGGCACCGAGTCGGTGCT	0.1766
cr461 (nucleic acid, listed as DNA, chemistry not fully specified) guide: GTTTAAGAGCTAAGCTGGAAACAGCATAGCAAGTTTAAATAAGGCTAGTCCTTAATCAACTTGAAGAAGTGGCACCGAGTCGGTGCT	0.1147

Batch lookup, Mean relative activity per entry.
1. cr347 (nucleic acid, listed as DNA, chemistry not fully specified) guide: GTTTAAGAGCTAAGCTGGAAACAGCATAGCAAGCTTAAATAAGCCTAGTGCGTTATCAACTTGAAAAAGTGGCACCGAGTCGGTGCT
2. cr198 (nucleic acid, listed as DNA, chemistry not fully specified) guide: GTTTAAGAGCTAAGCTGGAAACAGCATAGCAATTTTAAATAAGGCTAGTCCGTTATCAACTTGAAAAAGTGGCACCGAATCGGTGCT
3. cr277 (nucleic acid, listed as DNA, chemistry not fully specified) guide: GTTTAAGAGCTAAGCTGGAAACAGCATAGCAAGTTTAAATAAAGCTAGTCTGTTATCAACTAGAAATAGTGGCACAGAGTCTGTGCT
4. cr229 (nucleic acid, listed as DNA, chemistry not fully specified) guide: GTTTAAGAGCTAAGCTGGAAACAGCATAGCAAGTTTAAATACGGCTAGTCCGTTATCAACTTGAAAAAGTGGCACCGAGTCGGTGCT

Reply |
1: 0.1915; 2: 0.236; 3: 0.2732; 4: 0.1478

Reference source for all entries: patent US20220259593A1
